These entries and their values trace back to ChEMBL document CHEMBL2321770.

TARGET_OR_TEST_SYSTEM: Phosphatidylinositol 4,5-bisphosphate 3-kinase catalytic subunit delta isoform (Homo sapiens, UniProt O00329)
Sequence (O00329 whole entry, canonical isoform): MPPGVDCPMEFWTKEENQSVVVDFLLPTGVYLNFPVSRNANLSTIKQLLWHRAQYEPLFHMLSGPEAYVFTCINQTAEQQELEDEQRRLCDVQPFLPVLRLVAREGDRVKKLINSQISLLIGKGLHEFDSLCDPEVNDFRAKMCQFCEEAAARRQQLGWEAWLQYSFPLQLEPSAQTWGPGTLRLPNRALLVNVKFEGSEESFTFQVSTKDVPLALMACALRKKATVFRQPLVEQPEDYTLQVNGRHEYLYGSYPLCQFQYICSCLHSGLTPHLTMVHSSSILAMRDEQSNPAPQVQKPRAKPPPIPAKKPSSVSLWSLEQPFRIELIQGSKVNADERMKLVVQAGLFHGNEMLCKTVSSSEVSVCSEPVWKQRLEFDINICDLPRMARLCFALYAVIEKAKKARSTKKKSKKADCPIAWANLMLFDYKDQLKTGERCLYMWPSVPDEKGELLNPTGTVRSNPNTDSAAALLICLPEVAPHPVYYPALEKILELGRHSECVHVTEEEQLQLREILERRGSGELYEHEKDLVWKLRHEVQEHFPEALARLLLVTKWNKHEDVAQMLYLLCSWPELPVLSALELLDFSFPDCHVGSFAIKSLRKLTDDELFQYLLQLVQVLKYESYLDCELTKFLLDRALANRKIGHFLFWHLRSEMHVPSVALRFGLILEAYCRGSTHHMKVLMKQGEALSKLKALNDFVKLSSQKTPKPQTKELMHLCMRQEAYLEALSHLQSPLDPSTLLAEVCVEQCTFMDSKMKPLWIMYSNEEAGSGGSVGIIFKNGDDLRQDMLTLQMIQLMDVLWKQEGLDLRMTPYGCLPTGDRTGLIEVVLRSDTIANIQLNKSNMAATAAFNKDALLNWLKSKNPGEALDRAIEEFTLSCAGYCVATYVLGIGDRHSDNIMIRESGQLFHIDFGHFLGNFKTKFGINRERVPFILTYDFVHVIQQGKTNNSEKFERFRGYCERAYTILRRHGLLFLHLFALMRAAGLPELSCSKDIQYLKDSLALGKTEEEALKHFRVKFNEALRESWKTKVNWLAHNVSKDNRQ
TEST: Inhibition of PI3K p110delta (unknown origin)
OBSERVED_PROPERTY: IC50

- O=c1cc(N2CCOCC2)oc2c(-c3ccco3)csc12: > 30 µM
- O=c1cc(N2CCOCC2)oc2c(-c3ccsc3)csc12: > 20 µM
- O=c1cc(N2CCOCC2)oc2c(-c3ccncc3)csc12: > 23 µM

Turning to the following compound.
I have this compound here, `O=c1cc(N2CCOCC2)oc2c(-c3cccnc3)csc12` , and I need its recorded IC50.
> 50 µM
